- TEST TARGET: human alpha1,beta2,gamma2 GABAA receptor (Homo sapiens, UniProt P14867+P47870)
- Construct: expressed in transfected cells
- Sequence (P14867 28-456): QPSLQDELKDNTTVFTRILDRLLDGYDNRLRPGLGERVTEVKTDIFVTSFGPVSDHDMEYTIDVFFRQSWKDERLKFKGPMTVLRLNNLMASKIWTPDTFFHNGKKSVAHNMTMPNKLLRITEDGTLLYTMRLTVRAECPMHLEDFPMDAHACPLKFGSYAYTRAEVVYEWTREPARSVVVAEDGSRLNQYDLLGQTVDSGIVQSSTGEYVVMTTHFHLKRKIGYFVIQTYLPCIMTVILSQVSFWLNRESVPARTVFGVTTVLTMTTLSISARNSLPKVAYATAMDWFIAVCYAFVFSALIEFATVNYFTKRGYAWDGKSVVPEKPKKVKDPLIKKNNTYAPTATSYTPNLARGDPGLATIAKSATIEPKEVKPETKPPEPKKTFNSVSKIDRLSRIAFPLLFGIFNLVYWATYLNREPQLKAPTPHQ
- Sequence (P47870 25-512 limits assumed): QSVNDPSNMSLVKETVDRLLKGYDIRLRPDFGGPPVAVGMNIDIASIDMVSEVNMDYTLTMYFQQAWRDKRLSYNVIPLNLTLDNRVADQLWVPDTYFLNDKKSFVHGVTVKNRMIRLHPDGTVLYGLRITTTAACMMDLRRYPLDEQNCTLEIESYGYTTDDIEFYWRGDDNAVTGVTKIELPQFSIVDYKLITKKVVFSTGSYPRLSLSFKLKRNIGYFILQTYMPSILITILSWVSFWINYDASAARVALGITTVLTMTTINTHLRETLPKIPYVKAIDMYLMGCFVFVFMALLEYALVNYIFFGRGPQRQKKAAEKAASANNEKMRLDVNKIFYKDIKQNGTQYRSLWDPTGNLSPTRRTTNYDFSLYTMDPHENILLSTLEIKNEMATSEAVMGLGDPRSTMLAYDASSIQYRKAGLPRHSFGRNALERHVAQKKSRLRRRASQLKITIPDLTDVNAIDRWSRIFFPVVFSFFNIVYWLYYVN
- Sequence (P18507 40-475 partner): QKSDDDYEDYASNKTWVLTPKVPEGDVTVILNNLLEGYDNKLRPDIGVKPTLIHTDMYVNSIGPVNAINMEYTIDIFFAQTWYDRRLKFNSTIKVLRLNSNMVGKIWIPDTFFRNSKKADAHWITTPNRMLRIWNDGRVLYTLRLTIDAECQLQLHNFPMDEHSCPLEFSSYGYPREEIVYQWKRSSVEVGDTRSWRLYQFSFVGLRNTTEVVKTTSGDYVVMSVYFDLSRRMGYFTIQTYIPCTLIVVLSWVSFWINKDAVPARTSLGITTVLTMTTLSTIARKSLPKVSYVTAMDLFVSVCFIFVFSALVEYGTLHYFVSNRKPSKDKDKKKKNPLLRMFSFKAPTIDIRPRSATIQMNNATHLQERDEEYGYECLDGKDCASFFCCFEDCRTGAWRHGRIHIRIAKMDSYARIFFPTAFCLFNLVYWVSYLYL
- EXPERIMENT DESCRIPTION: Patch-clamp (Dynaflow) on HEK-293 cells expressing GABAA receptor alpha1,beta2,gamma2
- Type: cell-based
- ASSAY SETUP: read-out: EC50, enhancement of GABA mediated current; 0.03-1 μM THDOC + 30 μM GABA
READOUT LABEL: EC50 (nM)
Answers are plain numbers, in nM.

Which EC50 is reported for this compound? C[C@]12CC[C@@H](O)C[C@H]1CC[C@@H]1[C@@H]2CC[C@]2(C)[C@@H](C(=O)CO)CC[C@@H]12 [THDOC, Tetrahydrodeoxycorticosterone]
70
